Assay: Metabolic stability in human liver microsomes
Format: in vitro ADME
Details: pH 7.4
CLint scaled at 100 μM by entry:
measurementKind: CLint scaled at 100 μM

compound: Nc1ccc(Oc2ccc(S(=O)(=O)CC3CS3)cc2)cc1 (centres unmarked) [Compound 3]
reportedMeasurement: < 10 mL/min/kg
--
compound: N=C(N)NCCC[C@H](N)C(=O)Nc1ccc(Oc2ccc(S(=O)(=O)CC3CS3)cc2)cc1 (some centres unmarked) [Compound 5d]
reportedMeasurement: < 10 mL/min/kg

====

Experiment: Metabolic stability in rat liver microsomes
Format: in vitro ADME
Details: pH 7.4

compound: N=C(N)NCCC[C@H](N)C(=O)Nc1ccc(Oc2ccc(S(=O)(=O)CC3CS3)cc2)cc1 (stereo partly shown)
half-life at 100 μM: ≥ 1 h
